biological target: Cathepsin D (Homo sapiens, UniProt P07339)
Sequence (P07339 65-162 limits assumed): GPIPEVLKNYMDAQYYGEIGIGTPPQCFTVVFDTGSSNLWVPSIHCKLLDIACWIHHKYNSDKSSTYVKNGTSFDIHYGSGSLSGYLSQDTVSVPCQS
Sequence (P07339 169-412 limits assumed): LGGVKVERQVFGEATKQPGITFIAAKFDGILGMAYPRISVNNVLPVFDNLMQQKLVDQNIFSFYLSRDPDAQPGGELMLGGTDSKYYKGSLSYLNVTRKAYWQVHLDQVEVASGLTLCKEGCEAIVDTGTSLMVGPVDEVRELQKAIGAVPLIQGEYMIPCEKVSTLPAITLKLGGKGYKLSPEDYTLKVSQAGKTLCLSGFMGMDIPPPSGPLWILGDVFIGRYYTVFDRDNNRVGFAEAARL
pIC50: −log10 of the molar value. Non-standard residues stand in square brackets, D forms with d. Residues, ends and D or L forms follow the SMILES beside them. *: point of attachment. Sta = CC(C)C[C@H](N)[C@@H](O)CC(=O)O; Isovaleryl = CC(C)CC(=O)*
outcome-measure: pIC50

Worked examples follow.
> print(dat)
                                   compound  outcome.measure  value.reported
1  O=C1C[C@H](O)[C@H](Cc2ccccc2)NC(=O)CCCCCCCCCCCNC(=O)[C@H](c2ccccc2)N1            pIC50            7.57
2  CC(C)[C@@H]1NC(=O)C[C@H](O)[C@H](CC2CCCCC2)NC(=O)CCCCCCCCCCCNC1=O            pIC50            8.05
3  CC(C)[C@@H]1NC(=O)C[C@H](O)[C@H](Cc2ccc(Cl)c(Cl)c2)NC(=O)CCCCCCCCCCCNC1=O            pIC50            8.38
4  C[C@@H](OCc1ccccc1)[C@@H]1NC(=O)C[C@H](O)[C@H](Cc2ccccc2)NC(=O)CCCCCCCCCCCNC1=O            pIC50            6.25
5  CC(C)[C@@H]1NC(=O)C[C@H](O)[C@H](Cc2cscn2)NC(=O)CCCCCCCCCCCNC1=O            pIC50            6.22

P: CC(C)CC(=O)N[C@H](C(=O)N[C@H](C(=O)N[C@@H](CC(C)C)[C@@H](O)CC(=O)O)C(C)C)C(C)C (Isovaleryl-Val-Val-[Sta]-OH)
Q: CC(C)CC(=O)N[C@H](C(=O)N[C@H](C(=O)N[C@@H](CC(C)C)[C@@H](O)CC(=O)N[C@@H](C)C(=O)O)C(C)C)C(C)C (Isovaleryl-VV[Sta]A-OH)
Challenge: Would you let me know which has the greater pIC50 value, P or Q ? State your choice using its label.
Response given: Q
(Q: 7.40, P: 6.30)

----------
pIC50: −log10 of the molar value.
// values below are pIC50; system is Cathepsin D (Homo sapiens)
outcome-measure: pIC50

Worked examples follow.
> print(dat)
                                 cpd.smiles  outcome.measure  value.reported
1  O=C1C[C@H](O)[C@H](Cc2ccccc2)NC(=O)CCCCCCCCCCCNC(=O)[C@H](Cc2cccnc2)N1            pIC50            8.96
2  CC(C)[C@@H]1NC(=O)NC[C@H](O)[C@H](Cc2ccccc2)NC(=O)CCCCCCCCCCCNC1=O            pIC50            7.68
3  CC(C)[C@@H]1NC(=O)C[C@H](O)[C@H](Cc2ccccc2)NC(=O)OCCCCCCCCCCCNC1=O            pIC50            8.60
4  C[C@@H]1NC(=O)C[C@H](O)[C@H](Cc2ccccc2)NC(=O)CCCCCCCCCCCNC1=O            pIC50            7.17
5  CC(=O)NCCCC[C@@H]1NC(=O)C[C@H](O)[C@H](Cc2ccccc2)NC(=O)CCCCCCCCCCCNC1=O            pIC50            7.80

P: C[C@@H](O)[C@@H]1NC(=O)C[C@H](O)[C@H](Cc2ccccc2)NC(=O)CCCCCCCCCCCNC1=O
Q: CC(C)CC(=O)N[C@@H](CC(C)C)[C@@H](O)CC(=O)N[C@@H](C)C(=O)N[C@@H](CC(C)C)[C@@H](O)CC(=O)O
Challenge: Just tell me: smaller pIC50 value, P or Q ? State your choice using its label.
Response given: Q
(Q: 5.60, P: 6.30)

----------
// values below are pIC50; system is UniProtKB P07339
pIC50: −log10 of the molar value.
outcome-measure: pIC50

> print(dat)
                                 cpd.smiles  value.reported
1  CC(C)[C@@H]1NC(=O)C[C@H](O)[C@H](Cc2ccc(F)c(F)c2)NC(=O)CCCCCCCCCCCNC1=O            8.51

1: CC[C@@H](C)[C@@H]1NC(=O)C[C@H](O)[C@H](Cc2ccccc2)NC(=O)CCCCCCCCCCCNC1=O
2: CC(C)[C@@H]1NC(=O)C[C@H](O)[C@H](Cc2ccccc2)NC(=O)CCCCCCCCCCCCCNC1=O
3: CC(C)[C@@H]1NC(=O)C[C@H](O)[C@H](Cc2c[nH]c3ccccc23)NC(=O)CCCCCCCCCCCNC1=O
Challenge: Rank the items in ascending order with respect to pIC50. I would appreciate it if you listed the labels in the requested order.
Response given: 3, 2, 1

----------
biological target: Beta-secretase 1 (Homo sapiens) (UniProt P56817); test: Inhibition of recombinant human C-terminal 10His-tagged BACE1 expressed in mouse NS0 cells at 5 uM using Mca-Ser-Glu-Val-Asn-Leu-Asp-Ala-Glu-Phe-Arg-Lys(Dnp)-Arg-Arg as substrate preincubated for 10 mins followed by substrate addition and measured by FRET assay
Sequence (P56817 whole entry): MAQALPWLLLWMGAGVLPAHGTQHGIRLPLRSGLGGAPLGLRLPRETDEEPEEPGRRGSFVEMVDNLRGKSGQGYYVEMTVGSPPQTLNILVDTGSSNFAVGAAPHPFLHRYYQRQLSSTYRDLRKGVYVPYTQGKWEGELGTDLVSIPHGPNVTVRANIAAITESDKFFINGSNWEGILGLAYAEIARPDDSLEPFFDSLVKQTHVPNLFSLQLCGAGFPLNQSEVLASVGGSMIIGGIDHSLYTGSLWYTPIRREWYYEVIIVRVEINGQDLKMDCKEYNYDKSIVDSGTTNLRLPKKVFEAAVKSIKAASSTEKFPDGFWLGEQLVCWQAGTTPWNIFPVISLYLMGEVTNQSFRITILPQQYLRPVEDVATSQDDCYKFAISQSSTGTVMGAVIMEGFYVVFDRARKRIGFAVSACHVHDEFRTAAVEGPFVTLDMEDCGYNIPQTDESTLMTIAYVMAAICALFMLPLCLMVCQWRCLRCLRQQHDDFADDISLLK
Active and inactive are the calls of the source. The rule behind the calls is not given here.
outcome-measure: inhibition

> print(dat)
                                 cpd.smiles  value.reported
1  O=C1C[C@H](O)[C@H](Cc2ccccc2)NC(=O)CCCCCCCCCCCNC(=O)[C@H](c2ccccc2)N1          Active
2  CC(C)[C@@H]1NC(=O)C[C@H](O)[C@H](Cc2ccccc2)NC(=O)CCCCCCCCCCCCCCNC1=O          Active
3  CC(C)[C@@H]1NC(=O)C[C@H](O)[C@H](Cc2ccccc2)NC(=O)CCCCCCCCCCCNC1=O          Active
4  CC[C@@H](C)[C@@H]1NC(=O)C[C@H](O)[C@H](Cc2ccccc2)NC(=O)CCCCCCCCCCCNC1=O          Active

----------
assay: Solubility of the compound in pH 7.4 phosphate buffered saline by HPLC-MS analysis; assay type: physicochemical
outcome-measure: solubility (µg/mL)

a: O=C1C[C@H](O)[C@H](Cc2ccccc2)NC(=O)CCCCCCCCCCCNC(=O)[C@H](Cc2cccnc2)N1
b: CC(C)CC(=O)N[C@H](C(=O)N[C@H](C(=O)N[C@@H](CC(C)C)[C@@H](O)CC(=O)N[C@@H](C)C(=O)N[C@@H](CC(C)C)[C@@H](O)CC(=O)O)C(C)C)C(C)C
Challenge: Would you let me know which has the greater solubility value, a or b ? State your choice using its label.
Response given: a
(a: 342 µg/mL, b: 197 µg/mL)

----------
target: Saccharopepsin (Saccharomyces cerevisiae S288c) (UniProt P07267); experiment: Inhibition of Baker's yeast proteinase A at 50 nM using Abz-Lys-Pro-Ala-Glu-Phe-Nph-Ala-Leu as substrate preincubated for 10 mins followed by substrate addition and measured by FRET assay
Sequence (P07267 whole entry): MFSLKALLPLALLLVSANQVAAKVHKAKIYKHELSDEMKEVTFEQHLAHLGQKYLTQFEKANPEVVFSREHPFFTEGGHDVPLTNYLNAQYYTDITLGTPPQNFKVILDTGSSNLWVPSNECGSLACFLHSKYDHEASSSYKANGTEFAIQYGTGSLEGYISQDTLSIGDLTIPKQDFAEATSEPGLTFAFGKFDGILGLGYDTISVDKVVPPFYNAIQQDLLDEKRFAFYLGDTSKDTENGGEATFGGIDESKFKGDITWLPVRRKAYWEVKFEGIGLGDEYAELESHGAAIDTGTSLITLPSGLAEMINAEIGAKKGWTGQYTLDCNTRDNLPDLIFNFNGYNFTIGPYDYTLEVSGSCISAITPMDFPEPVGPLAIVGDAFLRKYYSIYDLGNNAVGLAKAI
The source made the active and inactive calls. The rule behind the calls is not given here.
outcome-measure: inhibition

Worked examples follow.
> print(dat)
                                 cpd.smiles                              study.target  value.reported
1  CC(C)[C@@H]1NC(=O)C[C@H](O)[C@H](Cc2ccc(Cl)c(Cl)c2)NC(=O)CCCCCCCCCCCNC1=O  Saccharopepsin (Saccharomyces cerevisiae S288c) (UniProt P07267)          Active
2  CC(C)[C@@H]1NC(=O)C[C@H](O)[C@H](Cc2ccccc2)NC(=O)CCCCCCCCCCCCNC1=O  Saccharopepsin (Saccharomyces cerevisiae S288c) (UniProt P07267)          Active
3  CC(C)[C@@H]1NC(=O)C[C@H](O)[C@H](Cc2ccc3ccccc3c2)NC(=O)CCCCCCCCCCCNC1=O  Saccharopepsin (Saccharomyces cerevisiae S288c) (UniProt P07267)          Active
4  O=C1C[C@H](O)[C@H](Cc2ccccc2)NC(=O)CCCCCCCCCCCNC(=O)[C@H](Cc2cccnc2)N1  Saccharopepsin (Saccharomyces cerevisiae S288c) (UniProt P07267)          Active
5  CC(C)[C@@H]1NC(=O)C[C@H](O)[C@H](CSCc2ccccc2)NC(=O)CCCCCCCCCCCNC1=O  Saccharopepsin (Saccharomyces cerevisiae S288c) (UniProt P07267)          Active

Now take the following molecule into account.
Challenge: Return the recorded inhibition value; entry: CC[C@@H](C)[C@@H]1NC(=O)C[C@H](O)[C@H](Cc2ccccc2)NC(=O)CCCCCCCCCCCNC1=O
Response given: Active
